# assay: Half life in human liver microsomes at in presence of NADPH regenerating system by LC-MS/MS analysis
# Format: ADME, Microsome
result.type: half-life (min)
Note: unit min is implicit; provide only the numeric part.

[[record]]
compound = "COC(=O)[C@@H]1CCCN1P(=O)(OC[C@H]1OC(OC(C)=O)[C@@H](NC(C)=O)[C@@H](OC(C)=O)[C@@H]1OC(C)=O)Oc1ccccc1 (mixture of isomers)"
test_value = 1.4


# get_value(readout='half-life', item= COC(=O)CNP(=O)(OC[C@H]1OC(OC(C)=O)[C@@H](NC(C)=O)[C@@H](OC(C)=O)[C@@H]1OC(C)=O)Oc1cccc2ccccc12 (mixture of isomers) )
1.2

# get_value(readout='half-life', item= CCOC(=O)[C@H](CC(C)C)NP(=O)(OC[C@H]1OC(OC(C)=O)[C@@H](NC(C)=O)[C@@H](OC(C)=O)[C@@H]1OC(C)=O)Oc1ccccc1 (mixture of isomers) )
1.3

# get_value(readout='half-life', item= CCOC(=O)[C@H](Cc1ccccc1)NP(=O)(OC[C@H]1OC(OC(C)=O)[C@@H](NC(C)=O)[C@@H](OC(C)=O)[C@@H]1OC(C)=O)Oc1ccccc1 (mixture of isomers) )
0.8

----------
# assay: Stability in human plasma assessed as parent compound remaining level at 2 uM incubated for 2 hrs by LC-MS/MS analysis
# Format: ADME, cell-free
# applied.conditions: read-out: Stability
result.type: remaining at 2 h, 2 µM (%)
Note: unit % is implicit; provide only the numeric part.

[[record]]
molecule = "COC(=O)CNP(=O)(OC[C@H]1OC(OC(C)=O)[C@@H](NC(C)=O)[C@@H](OC(C)=O)[C@@H]1OC(C)=O)Oc1cccc2ccccc12 (mixture of isomers)"
test_value = 8.3


# get_value(readout='remaining at 2 h, 2 µM', item= CCOC(=O)[C@H](CC(C)C)NP(=O)(OC[C@H]1OC(OC(C)=O)[C@@H](NC(C)=O)[C@@H](OC(C)=O)[C@@H]1OC(C)=O)Oc1ccccc1 (mixture of isomers) )
20

# get_value(readout='remaining at 2 h, 2 µM', item= COC(=O)[C@@H]1CCCN1P(=O)(OC[C@H]1OC(OC(C)=O)[C@@H](NC(C)=O)[C@@H](OC(C)=O)[C@@H]1OC(C)=O)Oc1ccccc1 (mixture of isomers) )
15

# get_value(readout='remaining at 2 h, 2 µM', item= CCOC(=O)[C@H](Cc1ccccc1)NP(=O)(OC[C@H]1OC(OC(C)=O)[C@@H](NC(C)=O)[C@@H](OC(C)=O)[C@@H]1OC(C)=O)Oc1ccccc1 (mixture of isomers) )
9.8

----------
# assay: Efflux ratio of apparent permeability in human Caco2 cells at 10 uM incubated for 2 hrs by LC-MS/MS analysis
# applied.conditions: Caco-2
result.type: efflux ratio at 2 h, 10 µM
Write the number on its own, no unit after it.

# get_value(readout='efflux ratio at 2 h, 10 µM', item= C[C@H]1O[C@@H](O[C@H]2[C@@H](O)C[C@H](O[C@H]3[C@@H](O)C[C@H](O[C@H]4CC[C@@]5(C)[C@H](CC[C@@H]6[C@@H]5C[C@@H](O)[C@]5(C)[C@@H](C7=CC(=O)OC7)CC[C@]65O)C4)O[C@@H]3C)O[C@@H]2C)C[C@H](O)[C@@H]1O )
374
